tested on: γ-glutamyl carboxylation reaction (human Gas6 in Gas6-HEK293 cells); test: Inhibitory action on γ-glutamyl carboxylation reaction (secreted γ-glutamyl carboxylated Gas6 by ELISA); type: cell-based; settings: vitamin K2 100 nM, exposure 18 to 20 hours, ELISA absorbance at 620 nm, read-out: IC50 (50% inhibitory concentration for the γ-glutamyl carboxylation reaction)
Answer each item with its documented IC50.
Reply numerically in nM, unit not repeated.

Given the compound CC(C)[C@H](NC(=O)c1nc2ccccc2nc1O)C(=O)N1CCC(C(=O)c2ccc(F)cc2)CC1 , what is its reported IC50? 5.1

Dear colleague, I am looking for the recorded IC50 of the following compound: CC(C)[C@H](NC(=O)c1nc2ccccc2nc1O)C(=O)N1CCC(C(=O)c2ccc(F)cc2F)CC1 3.5

For C[C@H](NC(=O)c1nc2ccccc2nc1O)C(=O)N1CCC(Oc2ccc(F)cc2)CC1 , what is its reported IC50? 6.6
